Biological target: Fyn (UniProt P06241)
Sequence (P06241 whole entry, looked up): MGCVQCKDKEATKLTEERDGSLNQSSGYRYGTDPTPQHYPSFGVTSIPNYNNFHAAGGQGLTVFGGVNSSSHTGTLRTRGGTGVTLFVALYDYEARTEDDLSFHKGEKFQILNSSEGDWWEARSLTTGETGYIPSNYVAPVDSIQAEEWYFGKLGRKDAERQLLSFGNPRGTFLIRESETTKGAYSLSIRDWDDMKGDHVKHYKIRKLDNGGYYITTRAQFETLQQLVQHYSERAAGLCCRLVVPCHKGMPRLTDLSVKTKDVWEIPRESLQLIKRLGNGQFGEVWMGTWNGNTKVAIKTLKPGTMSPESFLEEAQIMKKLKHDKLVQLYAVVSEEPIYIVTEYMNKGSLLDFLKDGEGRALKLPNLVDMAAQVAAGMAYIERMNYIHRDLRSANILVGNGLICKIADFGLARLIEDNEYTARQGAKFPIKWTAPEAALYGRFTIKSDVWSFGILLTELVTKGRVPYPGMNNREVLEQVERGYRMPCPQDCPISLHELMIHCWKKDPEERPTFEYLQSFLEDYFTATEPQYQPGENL
Assay: phosphorylation enrichment, bacterial display (enrichment ratio); higher = better substrate or ligand; peptides without Tyr show the background;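 note: 11-residue human phosphosite peptides and single-mutation variants displayed on the E. coli surface, counted by deep sequencing, each peptide's frequency after selection divided by its frequency in the unselected input library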;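 note: frequency after pTyr selection over input frequency; kinase dosed for 20-30% of maximal phosphorylation in three min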
result_type: phosphorylation enrichment
Reply with just the number.

Value (phosphorylation enrichment, Fyn (UniProt P06241)) for record AFSLKYDQQTQ [SYTL4_Y366_E367D] = 0.522

I looked up YCRHNYGVGES [HLA-DRB1_Y112_V115G] and its phosphorylation enrichment for Fyn (UniProt P06241) was 0.487

# PIDLFYLMDLS [ITGB2_Y131_YF] with Fyn (UniProt P06241): phosphorylation enrichment is 0.599

Measured on Fyn (UniProt P06241), TDLAYYLVRKG [ASL_Y376] has a documented phosphorylation enrichment of 0.539

Observed phosphorylation enrichment on Fyn (UniProt P06241), entry NHQFDYTFDWT [CSNK1A1_Y294_YF] , equals 0.584

Summary: LAGRFYALRSM [CKB_Y174_K177R_YF] , Fyn (UniProt P06241), phosphorylation enrichment = 0.737

The observed phosphorylation enrichment for DENWFYMRAAS [RPS19_Y54_T55M] when tested with Fyn (UniProt P06241) stands at 0.43

Reading of phosphorylation enrichment for SVTCTYSRALN [TP53_Y126_P128R] with Fyn (UniProt P06241): 0.429

Reported phosphorylation enrichment (Fyn (UniProt P06241)) for entry PLDGEYFTHQI [TP53_Y327_L330H] is 1.99

Reported phosphorylation enrichment (Fyn (UniProt P06241)) for entry FCIDHYLGKEM [G6PD_Y202_R198C_YF] is 0.657

Lab entry: Fyn (UniProt P06241) assay, sequence LIHLHYIRRDF [BBS4_Y43_K46R_YF] , phosphorylation enrichment = 0.503

// sequence AIDVGYRLIDC [AKR1B1_Y40_H42L] , assay Fyn (UniProt P06241), phosphorylation enrichment value: 0.428

Considering AAVDEYLEHRR [FAM221A_Y17_Y20H] , its phosphorylation enrichment with Fyn (UniProt P06241) was recorded as 0.48
